measuredOn: bovine brain purified PI 3-kinase
protocolDetails: Assay of purified PI 3-kinase activity (32P incorporation into phosphatidylinositol, TLC/scintillation)
Assay type: biochemical
measurementConditions: molar value printed in parentheses, read-out: IC50
valueType: IC50 (pM)
Provide only the numeric value, understood in pM.

For reference, reported IC50 for COC[C@H]1OC(=O)c2coc3c2[C@@]1(C)C1=C(C3=O)[C@@H]2CC[C@H](O)[C@@]2(C)C[C@H]1OC(C)=O [17β-hydroxywortmannin] stands at 460
